Target: human recombinant D1 receptor (Homo sapiens, UniProt P21728)
Sequence (P21728 whole entry): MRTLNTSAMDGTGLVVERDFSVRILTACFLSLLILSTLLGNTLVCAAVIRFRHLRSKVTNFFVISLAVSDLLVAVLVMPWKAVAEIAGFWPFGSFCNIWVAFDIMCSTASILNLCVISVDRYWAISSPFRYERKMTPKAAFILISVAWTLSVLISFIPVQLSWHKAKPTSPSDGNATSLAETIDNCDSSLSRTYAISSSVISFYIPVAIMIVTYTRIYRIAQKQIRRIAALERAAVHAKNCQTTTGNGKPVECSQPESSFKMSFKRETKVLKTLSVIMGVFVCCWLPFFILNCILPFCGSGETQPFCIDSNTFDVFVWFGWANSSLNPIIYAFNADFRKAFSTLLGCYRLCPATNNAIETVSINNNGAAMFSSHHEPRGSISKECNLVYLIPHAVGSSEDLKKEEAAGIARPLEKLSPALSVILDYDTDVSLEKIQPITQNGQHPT
Method description: D1 cAMP assay
Type: cell-based
Where a name gives a salt, the structure may show the parent alone.
Observable: EC50 (µM)
Quick note: give the figure in µM, leave out the unit.

{"columns": ["Compound", "Observable", "Readout number"],
 "data": [
  ["CCCN1C[C@H](C)O[C@@H]2Cc3c(O)cccc3C[C@H]21 [Example 5k, trifluoroacetate]", "EC50", 0.18]
]}

Query (compound): CCCN1CCO[C@@H]2Cc3c(ccc(O)c3O)C[C@H]21 [Example 7, trifluoroacetate] ; field requested: EC50 0.2

Value lookup for EC50; key = CCCN1C[C@H](Cn2ccnc2)O[C@@H]2Cc3c(cccc3OC)C[C@H]21 [Example 3e] 5.8

====

Target: human D2 receptor (Homo sapiens, UniProt P14416)
Construct: expressed in transfected cells; host or cells: CHO cells
Sequence (P14416 whole entry): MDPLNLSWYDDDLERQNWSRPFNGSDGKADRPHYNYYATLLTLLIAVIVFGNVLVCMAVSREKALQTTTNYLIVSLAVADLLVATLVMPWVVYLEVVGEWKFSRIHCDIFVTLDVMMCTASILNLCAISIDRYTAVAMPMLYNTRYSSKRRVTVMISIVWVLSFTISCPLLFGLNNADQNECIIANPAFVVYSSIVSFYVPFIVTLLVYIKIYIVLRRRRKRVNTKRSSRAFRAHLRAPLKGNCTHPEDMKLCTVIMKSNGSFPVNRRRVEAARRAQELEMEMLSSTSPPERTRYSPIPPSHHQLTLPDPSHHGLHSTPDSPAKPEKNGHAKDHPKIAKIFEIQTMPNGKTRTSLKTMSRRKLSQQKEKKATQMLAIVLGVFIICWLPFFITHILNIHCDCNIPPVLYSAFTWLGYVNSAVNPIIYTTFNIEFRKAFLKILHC
Method description: D2 cAMP assay
Format: cell-based
Measurement context: inhibition of forskolin-stimulated cAMP formation in CHO cells transfected with the human D2 receptor; read-out: D2 EC 50
Structures can show the parent of a compound that is named as a salt.
Observable: pEC50
For clarity, pEC50 is expressed as the negative log10 of concentration in mol/L.

{"columns": ["Compound", "Observable", "Readout number"],
 "data": [
  ["CCCN1CCO[C@@H]2Cc3c(ccc4c3OCO4)C[C@H]21 [Example 8c, trifluoroacetate]", "pEC50", 6.85]
]}

Any idea what pEC50 was measured for "CCCN1C[C@@H](CSC)O[C@@H]2Cc3c(cccc3OC)C[C@H]21" ? 6.96

====

Target: human D2 receptor (Homo sapiens, UniProt P14416)
Construct: expressed in transfected cells; host or cells: CHO cells
Method description: D2 cAMP assay
Assay type: cell-based
Structures can show the parent of a compound that is named as a salt.
Observable: pEC50
Remember, pEC50 is on a log scale: it is -log10 of the molar concentration.

{"columns": ["Compound", "pEC50"],
 "data": [
  ["CCCN1C[C@H](Cn2ccnc2)O[C@@H]2Cc3c(cccc3OC)C[C@H]21", 7.52],
  ["Oc1cccc2c1C[C@@H]1OCCN(CC3CC3)[C@H]1C2 [Example 5d2, hydrochloride]", 5.85],
  ["CCCN1C[C@H](C)O[C@@H]2Cc3c(O)cccc3C[C@H]21 [Example 5k, trifluoroacetate]", 8.70]
]}

Kindly review the next compound as well.
# get_value(readout='pEC50', item= CCCN1CCO[C@@H]2Cc3c(ccc(O)c3O)C[C@H]21 [Example 7, trifluoroacetate] ) 9.82

====

Reported pEC50 values are given for each entry in this list.
Target: human recombinant D1 receptor (Homo sapiens)
Method description: D1 cAMP assay
Format: cell-based
Measurement context: cAMP formation in CHO cells stably expressing the human recombinant D1 receptor; read-out: D1 EC 50
pEC50: −log10 of the molar value. Counter-ions that a name gives are not always drawn.

{"columns": ["Compound", "pEC50"],
 "data": [
  ["CCCN1CCO[C@@H]2Cc3c(ccc4c3OCO4)C[C@H]21 [Example 8c, trifluoroacetate]", "< 5.00"]
]}

Pending compound:
Name the recorded pEC50 for CCCN1C[C@@H](CSC)O[C@@H]2Cc3c(cccc3OC)C[C@H]21 [Example 3c] . < 5.00
